# procedure-text: viability by trypan blue exclusion (Vi-Cell XR)
# experimental-context: human, Jurkat cells
experimental-readout: cytotoxicity at 18 h, 100 ng/ml (%)
The reply should be a number in %, with the unit left off.

[in] Look up cytotoxicity at 18 h, 100 ng/ml of CC(/C=C/C(=O)NO)=C\[C@@H](C)C(=O)c1ccc(N(C)C)cc1 and report it.
[out] 24.9
